- targetDesc: RAR β (Homo sapiens, UniProt P10826)
- Sequence (P10826 whole entry): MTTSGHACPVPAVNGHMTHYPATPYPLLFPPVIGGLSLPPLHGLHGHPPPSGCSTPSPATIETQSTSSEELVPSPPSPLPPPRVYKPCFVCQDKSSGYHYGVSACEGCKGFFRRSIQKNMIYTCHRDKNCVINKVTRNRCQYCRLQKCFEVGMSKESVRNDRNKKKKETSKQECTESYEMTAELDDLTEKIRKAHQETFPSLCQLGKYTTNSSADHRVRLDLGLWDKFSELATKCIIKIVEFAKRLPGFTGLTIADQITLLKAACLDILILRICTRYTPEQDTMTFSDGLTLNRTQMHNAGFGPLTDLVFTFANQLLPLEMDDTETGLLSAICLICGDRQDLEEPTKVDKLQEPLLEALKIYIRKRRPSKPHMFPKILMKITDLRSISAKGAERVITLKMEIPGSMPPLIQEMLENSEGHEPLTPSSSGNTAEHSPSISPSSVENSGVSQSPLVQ
- test: Ligand binding assay, retinoic acid receptor β
- experimentalParameters: second value of α/β/γ cell
- Source text: The retinoic acid receptor agonist selectivity of a compound of the invention may be determined by using ligand binding assays known to the skilled artisan (Apfel et al., Proc. Natl. Acad. Sci., 1992, 89, 7129; Teng et al., J. Med. Chem., 1997, 40, 2445; Bryce et al., U.S. Pat. No. 5,807,900 which are herein incorporated by reference). Treatment with RAR agonists, particularly RAR γ agonists may promote repair of alveolar matrix and septation, which are in important in treating emphysema. […]
Reported IC50 values follow for various molecules
quantityMeasured: IC50 (nM)

molecule="CCCCCC(COc1ccc(C(=O)O)cc1)c1ccc2c(c1)N(CC)CCC2(C)C (racemic) [Example 5.13]" quantitymeasured=IC50 experimentalresult=3130
molecule="CCCCCC(/C=C/c1ccc(C(=O)O)cc1)c1ccc2c(c1)NCCC2(C)C (racemic) [Example 5.10]" quantitymeasured=IC50 experimentalresult=8270
molecule="CCCCCC(/C=C/c1ccc(C(=O)O)cc1)c1ccc2c(c1)N(CC)CCC2(C)C (racemic) [Example 5.6]" quantitymeasured=IC50 experimentalresult=1470
molecule="CCCCCC(/C=C/c1ccc(C(=O)O)cc1)c1ccc2c(c1)SCCC2(C)C (racemic) [Example 5.4]" quantitymeasured=IC50 experimentalresult=1490
molecule="CCCCCC(COc1ccc(C(=O)O)cc1)c1ccc2c(c1)N(C)CCC2(C)C (racemic) [Example 5.12]" quantitymeasured=IC50 experimentalresult=4150
molecule="CCCCCC(/C=C/c1ccc(C(=O)O)cc1)c1ccc2c(c1)OCCC2(C)C (racemic) [Example 5.3]" quantitymeasured=IC50 experimentalresult=2920
molecule="CCC(/C=C/c1ccc(C(=O)O)cc1)c1ccc2c(c1)N(C)CCC2(C)C (racemic) [Example 5.7]" quantitymeasured=IC50 experimentalresult=1050
molecule="CCCCCC(/C=C/c1ccc(C(=O)O)cc1F)c1ccc2c(c1)N(C)CCC2(C)C (racemic) [Example 5.11]" quantitymeasured=IC50 experimentalresult=3260
molecule="CCCCCC(/C=C/c1ccc(C(=O)O)cc1)c1ccc2c(c1)N(C)CCC2(C)C (racemic) [Example 5.5]" quantitymeasured=IC50 experimentalresult=1940
molecule="CCCCCC(COc1ccc(C(=O)O)cc1)c1ccc2c(c1)OCCC2(C)C (racemic) [Example 5.1]" quantitymeasured=IC50 experimentalresult=3160
molecule="CCCCCC(COc1ccc(C(=O)O)cc1)c1ccc2c(c1)SCCC2(C)C (racemic) [Example 5.2]" quantitymeasured=IC50 experimentalresult=3010
